Exercise: for every item that follows, state its recorded Antimicrobiral potency.
# System: Mycobacterium smegmatis ATCC 607
# Test Summary: Antimicrobial activity, agar plate-cylinder method, bleomycin A2 as standard (1,000 u/mg)
# Assay type: cell-based
# Condition Notes: Table 5; copper-free form; relative to bleomycin A2 = 1,000 u/mg

Measured Antimicrobiral potency of CCCCNCCCNCCCNC(=O)c1csc(-c2csc(CCNC(=O)C(NC(=O)C(C)C(O)C(C)NC(=O)C(NC(=O)c3nc(C(CC(N)=O)NCC(N)C(N)=O)nc(N)c3C)C(OC3OC(CO)C(O)C(O)C3OC3OC(CO)C(O)C(OC(N)=O)C3O)c3cnc[nH]3)C3(O)CC3)n2)n1 (stereo not shown) : 7,942 u/mg

Measured Antimicrobiral potency of Cc1c(N)nc(C(CC(N)=O)NCC(N)C(N)=O)nc1C(=O)NC(C(=O)NC(C)C(O)C(C)C(=O)NC(C(=O)NCCc1nc(-c2nc(C(=O)NCCN)cs2)cs1)C1(O)CC1)C(OC1OC(CO)C(O)C(O)C1OC1OC(CO)C(O)C(OC(N)=O)C1O)c1cnc[nH]1 (stereo not shown) : 2,760 u/mg

Measured Antimicrobiral potency of Cc1c(N)nc(C(CC(N)=O)NCC(N)C(N)=O)nc1C(=O)NC(C(=O)NC(C)C(O)C(C)C(=O)NC(C(=O)NCCc1nc(-c2nc(C(=O)NCCc3cnc[nH]3)cs2)cs1)C1(O)CC1)C(OC1OC(CO)C(O)C(O)C1OC1OC(CO)C(O)C(OC(N)=O)C1O)c1cnc[nH]1 (stereo not shown) : 1,147 u/mg

Measured Antimicrobiral potency of Cc1c(N)nc(C(CC(N)=O)NCC(N)C(N)=O)nc1C(=O)NC(C(=O)NC(C)C(O)C(C)C(=O)NC(C(=O)NCCc1nc(-c2nc(C(=O)NCCC[S+](C)C)cs2)cs1)C1(O)CC1)C(OC1OC(CO)C(O)C(O)C1OC1OC(CO)C(O)C(OC(N)=O)C1O)c1cnc[nH]1 (stereo not shown) : 1,320 u/mg

Measured Antimicrobiral potency of Cc1c(N)nc(C(CC(N)=O)NCC(N)C(N)=O)nc1C(=O)NC(C(=O)NC(C)C(O)C(C)C(=O)NC(C(=O)NCCc1nc(-c2nc(C(=O)NCCCNCCCN)cs2)cs1)C1(O)CC1)C(OC1OC(CO)C(O)C(O)C1OC1OC(CO)C(O)C(OC(N)=O)C1O)c1cnc[nH]1 (stereo not shown) : 2,790 u/mg

Measured Antimicrobiral potency of Cc1c(N)nc(C(CC(N)=O)NCC(N)C(N)=O)nc1C(=O)NC(C(=O)NC(C)C(O)C(C)C(=O)NC(C(=O)NCCc1nc(-c2nc(C(=O)NCCCN(C)CCCN)cs2)cs1)C1(O)CC1)C(OC1OC(CO)C(O)C(O)C1OC1OC(CO)C(O)C(OC(N)=O)C1O)c1cnc[nH]1 (stereo not shown) : 2,273 u/mg

Measured Antimicrobiral potency of Cc1c(N)nc(C(CC(N)=O)NCC(N)C(N)=O)nc1C(=O)NC(C(=O)NC(C)C(O)C(C)C(=O)NC(C(=O)NCCc1nc(-c2nc(C(=O)NCCCNCCc3ccccn3)cs2)cs1)C1(O)CC1)C(OC1OC(CO)C(O)C(O)C1OC1OC(CO)C(O)C(OC(N)=O)C1O)c1cnc[nH]1 (stereo not shown) : 6,068 u/mg

Measured Antimicrobiral potency of Cc1c(N)nc(C(CC(N)=O)NCC(N)C(N)=O)nc1C(=O)NC(C(=O)NC(C)C(O)C(C)C(=O)NC(C(=O)NCCc1nc(-c2nc(C(=O)NCCCNCCCCCCN)cs2)cs1)C1(O)CC1)C(OC1OC(CO)C(O)C(O)C1OC1OC(CO)C(O)C(OC(N)=O)C1O)c1cnc[nH]1 (stereo not shown) : 3,520 u/mg

Measured Antimicrobiral potency of Cc1c(N)nc(C(CC(N)=O)NCC(N)C(N)=O)nc1C(=O)NC(C(=O)NC(C)C(O)C(C)C(=O)NC(C(=O)NCCc1nc(-c2nc(C(=O)NCCCNC(C)c3ccccc3)cs2)cs1)C1(O)CC1)C(OC1OC(CO)C(O)C(O)C1OC1OC(CO)C(O)C(OC(N)=O)C1O)c1cnc[nH]1 (stereo not shown) : 10,949 u/mg

Measured Antimicrobiral potency of Cc1c(N)nc(C(CC(N)=O)NCC(N)C(N)=O)nc1C(=O)NC(C(=O)NC(C)C(O)C(C)C(=O)NC(C(=O)NCCc1nc(-c2nc(C(=O)NCCCN3CCNCC3)cs2)cs1)C1(O)CC1)C(OC1OC(CO)C(O)C(O)C1OC1OC(CO)C(O)C(OC(N)=O)C1O)c1cnc[nH]1 (stereo not shown) : 980 u/mg

Measured Antimicrobiral potency of Cc1c(N)nc(C(CC(N)=O)NCC(N)C(N)=O)nc1C(=O)NC(C(=O)NC(C)C(O)C(C)C(=O)NC(C(=O)NCCc1nc(-c2nc(C(=O)NCCCCNC(=N)N)cs2)cs1)C1(O)CC1)C(OC1OC(CO)C(O)C(O)C1OC1OC(CO)C(O)C(OC(N)=O)C1O)c1cnc[nH]1 (stereo not shown) : 3,262 u/mg

Measured Antimicrobiral potency of Cc1c(N)nc(C(CC(N)=O)NCC(N)C(N)=O)nc1C(=O)NC(C(=O)NC(C)C(O)C(C)C(=O)NC(C(=O)NCCc1nc(-c2nc(C(=O)NCCCNCCCCCCO)cs2)cs1)C1(O)CC1)C(OC1OC(CO)C(O)C(O)C1OC1OC(CO)C(O)C(OC(N)=O)C1O)c1cnc[nH]1 (stereo not shown) : 4,806 u/mg

Measured Antimicrobiral potency of Cc1c(N)nc(C(CC(N)=O)NCC(N)C(N)=O)nc1C(=O)NC(C(=O)NC(C)C(O)C(C)C(=O)NC(C(=O)NCCc1nc(-c2nc(C(=O)NCCCNCCCCN)cs2)cs1)C1(O)CC1)C(OC1OC(CO)C(O)C(O)C1OC1OC(CO)C(O)C(OC(N)=O)C1O)c1cnc[nH]1 (stereo not shown) : 3,575 u/mg

====

Exercise: for every item that follows, state its recorded Antimicrobiral potency.
# Test system: Mycobacterium smegmatis ATCC 607
# Test Summary: Antimicrobial activity, agar plate-cylinder method, bleomycin A2 as standard (1,000 u/mg)
# Format: cell-based
# Condition Notes: Table 5; copper-free form; relative to bleomycin A2 = 1,000 u/mg

Measured Antimicrobiral potency of Cc1c(N)nc(C(CC(N)=O)NCC(N)C(N)=O)nc1C(=O)NC(C(=O)NC(C)C(O)C(C)C(=O)NC(C(=O)NCCc1nc(-c2nc(C(=O)NCCCNC(C)CCN)cs2)cs1)C1(O)CC1)C(OC1OC(CO)C(O)C(O)C1OC1OC(CO)C(O)C(OC(N)=O)C1O)c1cnc[nH]1 (stereo not shown) : 2,620 u/mg

Measured Antimicrobiral potency of Cc1c(N)nc(C(CC(N)=O)NCC(N)C(N)=O)nc1C(=O)NC(C(=O)NC(C)C(O)C(C)C(=O)NC(C(=O)NCCc1nc(-c2nc(C(=O)NCCCNCCCNCc3ccccc3)cs2)cs1)C1(O)CC1)C(OC1OC(CO)C(O)C(O)C1OC1OC(CO)C(O)C(OC(N)=O)C1O)c1cnc[nH]1 (stereo not shown) : 8,400 u/mg

Measured Antimicrobiral potency of Cc1c(N)nc(C(CC(N)=O)NCC(N)C(N)=O)nc1C(=O)NC(C(=O)NC(C)C(O)C(C)C(=O)NC(C(=O)NCCc1nc(-c2nc(C(=O)NCCCNCCCNC(C)c3ccccc3)cs2)cs1)C1(O)CC1)C(OC1OC(CO)C(O)C(O)C1OC1OC(CO)C(O)C(OC(N)=O)C1O)c1cnc[nH]1 (stereo not shown) : 11,420 u/mg

Measured Antimicrobiral potency of Cc1c(N)nc(C(CC(N)=O)NCC(N)C(N)=O)nc1C(=O)NC(C(=O)NC(C)C(O)C(C)C(=O)NC(C(=O)NCCc1nc(-c2nc(C(=O)NCCCNCCCN(C)C)cs2)cs1)C1(O)CC1)C(OC1OC(CO)C(O)C(O)C1OC1OC(CO)C(O)C(OC(N)=O)C1O)c1cnc[nH]1 (stereo not shown) : 2,004 u/mg

Measured Antimicrobiral potency of Cc1c(N)nc(C(CC(N)=O)NCC(N)C(N)=O)nc1C(=O)NC(C(=O)NC(C)C(O)C(C)C(=O)NC(C(=O)NCCc1nc(-c2nc(C(=O)NCCCNCCCNC3CCCCC3)cs2)cs1)C1(O)CC1)C(OC1OC(CO)C(O)C(O)C1OC1OC(CO)C(O)C(OC(N)=O)C1O)c1cnc[nH]1 (stereo not shown) : 14,784 u/mg

Measured Antimicrobiral potency of Cc1c(N)nc(C(CC(N)=O)NCC(N)C(N)=O)nc1C(=O)NC(C(=O)NC(C)C(O)C(C)C(=O)NC(C(=O)NCCc1nc(-c2nc(C(=O)NCCCNCc3ccccc3)cs2)cs1)C1(O)CC1)C(OC1OC(CO)C(O)C(O)C1OC1OC(CO)C(O)C(OC(N)=O)C1O)c1cnc[nH]1 (stereo not shown) : 6.977 u/mg

Measured Antimicrobiral potency of Cc1c(N)nc(C(CC(N)=O)NCC(N)C(N)=O)nc1C(=O)NC(C(=O)NC(C)C(O)C(C)C(=O)NC(C(=O)NCCc1nc(-c2nc(C(=O)NCCC[N+](C)(C)C)cs2)cs1)C1(O)CC1)C(OC1OC(CO)C(O)C(O)C1OC1OC(CO)C(O)C(OC(N)=O)C1O)c1cnc[nH]1 (stereo not shown) : 878 u/mg
